Every entry's value here was drawn from ChEMBL document CHEMBL4017458.

The following compounds are listed with their measured bioavailability values.
Test: Oral bioavailability in rat at 10 mg/kg
Type: ADME, organism-based
Conditions: in vivo
METRIC: bioavailability (%)

MOL SMILES | VAL
O=S(=O)(Nc1nccs1)c1cc(Cl)c(NCC23CCCN2CCC3)cc1F | 40
O=S(=O)(Nc1nccs1)c1cc(Cl)c(NC[C@]23CCCN2C[C@@H](F)C3)cc1F | 57
CC1(C)CN2CCC[C@@]2(CNc2cc(F)c(S(=O)(=O)Nc3nccs3)cc2Cl)C1 | 45
O=S(=O)(Nc1ncc(F)s1)c1cc(Cl)c(NCC23CCCN2CCC3)cc1F | 55
O=S(=O)(Nc1ncns1)c1cc(F)c(NCC23CCCN2CCC3)cc1F | 4
